# experiment: Cmax in healthy human at 6 mg/kg, iv administered as 30 mins infusion every 24 hrs measured on day 7
# Format: ADME, organism-based
# Parameters: dose 6 mg/kg, route intravenous
# experimental_conditions: in vivo
measured_parameter: Cmax (µg/mL)
Give bare numbers, in µg/mL.

INPUT: Any idea what its Cmax is? The compound is `CCCCCCCCCC(=O)N[C@@H](Cc1c[nH]c2ccccc12)C(=O)N[C@H](CC(N)=O)C(=O)N[C@@H](CC(=O)O)C(=O)N[C@@H]1C(=O)NCC(=O)N[C@@H](CCCN)C(=O)N[C@@H](CC(=O)O)C(=O)N[C@H](C)C(=O)N[C@@H](CC(=O)O)C(=O)NCC(=O)N[C@H](CO)C(=O)N[C@@H]([C@H](C)CC(=O)O)C(=O)N[C@@H](CC(=O)c2ccccc2N)C(=O)O[C@@H]1C`
OUTPUT: 98.6
